Listed next: entries and their corresponding MCV.
Assay: Hematology assays in cynomolgus monkeys (Example 45)
Type: in vivo
Conditions: day −5; escalating dose regimen
Readout: MCV (fL)

Substance	Value measured
ISIS 416858: MOE gapmer, nucleobases 1275 to 1318 of SEQ ID NO: 1 (Table 8) (antisense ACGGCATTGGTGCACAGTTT; MOE gapmer, wing and gap sizes not given here)	75
ISIS 416838: MOE gapmer, nucleobases 1018 to 1042 of SEQ ID NO: 1 (Table 6) (antisense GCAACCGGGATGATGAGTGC; MOE gapmer, wing and gap sizes not given here)	76
ISIS 417002: MOE gapmer, nucleobases 1275 to 1318 of SEQ ID NO: 1 (Table 8) (antisense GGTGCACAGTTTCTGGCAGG; MOE gapmer, wing and gap sizes not given here)	80
ISIS 416850: MOE gapmer, nucleobases 1275 to 1318 of SEQ ID NO: 1 (Table 8) (antisense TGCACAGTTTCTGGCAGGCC; MOE gapmer, wing and gap sizes not given here)	77
ISIS 416864: MOE gapmer, nucleobases 1275 to 1318 of SEQ ID NO: 1 (Table 8) (antisense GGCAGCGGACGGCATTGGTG; MOE gapmer, wing and gap sizes not given here)	79

====

Test system: human Factor 11 mRNA
Test: Dose-dependent inhibition of human Factor 11 in HepB3 cells, lipofectin (Example 7)
Format: cell-based
Conditions: 37.5 nM, ~16 hours
Readout: percent inhibition of Factor 11 mRNA relative to untreated control cells (%)

> print(dat)
                                  substance  unit.tag  value.measured
1  416850 (antisense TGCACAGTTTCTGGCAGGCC; 5-10-5 gapmer, further chemistry not given here) [compound 416850]         %              75
2  416864 (antisense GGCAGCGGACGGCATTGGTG; 5-10-5 gapmer, further chemistry not given here) [compound 416864]         %              76
3  416826 (antisense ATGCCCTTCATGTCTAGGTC; 5-10-5 gapmer, further chemistry not given here) [compound 416826]         %              64
4  416999 (antisense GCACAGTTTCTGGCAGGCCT; 2-13-5 gapmer chemistry, further chemistry not given here) [compound 416999]         %              71
5  416925 (antisense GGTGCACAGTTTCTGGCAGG; 3-14-3 gapmer chemistry, further chemistry not given here) [compound 416925]         %              72

====

Experiment: Bleeding assay, Surgicutt Jr. device (Example 45)
Type: in vivo, cynomolgus monkeys
Design: unit not given here
Conditions: day 43; escalating dose regimen
Listed next: entries and their corresponding bleeding time.

Substance	bleeding time
ISIS 416838: MOE gapmer, nucleobases 1018 to 1042 of SEQ ID NO: 1 (Table 6) (antisense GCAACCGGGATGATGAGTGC; MOE gapmer, wing and gap sizes not given here)	120
ISIS 416858: MOE gapmer, nucleobases 1275 to 1318 of SEQ ID NO: 1 (Table 8) (antisense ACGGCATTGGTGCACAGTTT; MOE gapmer, wing and gap sizes not given here)	111
ISIS 416864: MOE gapmer, nucleobases 1275 to 1318 of SEQ ID NO: 1 (Table 8) (antisense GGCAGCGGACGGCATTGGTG; MOE gapmer, wing and gap sizes not given here)	146
ISIS 417002: MOE gapmer, nucleobases 1275 to 1318 of SEQ ID NO: 1 (Table 8) (antisense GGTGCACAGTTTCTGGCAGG; MOE gapmer, wing and gap sizes not given here)	120
ISIS 416850: MOE gapmer, nucleobases 1275 to 1318 of SEQ ID NO: 1 (Table 8) (antisense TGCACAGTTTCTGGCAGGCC; MOE gapmer, wing and gap sizes not given here)	216
